Parameter MIC: see the listing below.
System: Staphylococcus saprophyticus
Method notes: Antibacterial activity against Staphylococcus saprophyticus ATCC 49453 after 24 hrs
Assay type: functional
Condition details: ATCC 49453, 24 h
Positions of bridges follow the written chain, without caps; N, C: chain ends. Non-standard residues stand in square brackets, D forms with d. Residues, ends and D or L forms follow the SMILES beside them. dNMeF = CN[C@H](Cc1ccccc1)C(=O)O

Compound	System tested	Observed measurement
CC[C@@H](C)[C@@H](NC(=O)[C@@H](CCC(N)=O)NC(=O)[C@H](CO)NC(=O)[C@@H](NC(=O)[C@@H](Cc1ccccc1)NC)[C@@H](C)CC)C(=O)N[C@H](C(=O)N[C@@H](CO)C(=O)N[C@H]1C(=O)N[C@@H](CCCNC(=N)N)C(=O)N[C@@H](CC(C)C)C(=O)N[C@@H]([C@@H](C)CC)C(=O)O[C@H]1C)[C@@H](C)CC (H-[dNMeF]IS[dQ][dI]IS[dT]RLI; ester 8-C)	Staphylococcus saprophyticus	< 0.0625 µg/mL

**Q:** Look up MIC for this compound: CC[C@@H](C)[C@@H](NC(=O)[C@@H](CCCNC(=N)N)NC(=O)[C@H](CCCNC(=N)N)NC(=O)[C@@H](NC(=O)[C@@H](Cc1ccccc1)NC)[C@@H](C)CC)C(=O)N[C@H](C(=O)N[C@@H](CO)C(=O)N[C@H]1C(=O)N[C@@H](CCCNC(=N)N)C(=O)N[C@@H](CC(C)C)C(=O)N[C@@H]([C@@H](C)CC)C(=O)O[C@H]1C)[C@@H](C)CC (H-[dNMeF]IR[dR][dI]IS[dT]RLI; ester 8-C)
**A:** < 0.0625 µg/mL

**Q:** Any idea what MIC was measured for CC[C@@H](C)[C@@H](NC(=O)[C@@H](CCC(N)=O)NC(=O)[C@H](CCCNC(=N)N)NC(=O)[C@@H](NC(=O)[C@@H](Cc1ccccc1)NC)[C@@H](C)CC)C(=O)N[C@H](C(=O)N[C@@H](CO)C(=O)N[C@H]1C(=O)N[C@@H](CCCNC(=N)N)C(=O)N[C@@H](CC(C)C)C(=O)N[C@@H]([C@@H](C)CC)C(=O)O[C@H]1C)[C@@H](C)CC (H-[dNMeF]IR[dQ][dI]IS[dT]RLI; ester 8-C) ?
**A:** < 0.0625 µg/mL

###

Tested on: Staphylococcus aureus
Method notes: Antibacterial activity against Staphylococcus aureus ATCC 29213 after 24 hrs
Type: functional
Condition details: ATCC 29213, 24 h
Positions of bridges follow the written chain, without caps; N, C: chain ends. Non-standard residues stand in square brackets, D forms with d. Residues, ends and D or L forms follow the SMILES beside them. dNMeF = CN[C@H](Cc1ccccc1)C(=O)O
Value kind: MIC (µg/mL)
State the answer as a number, implicitly in µg/mL.

Compound	MIC / µg/mL
CC[C@@H](C)[C@@H](NC(=O)[C@@H](CCCNC(=N)N)NC(=O)[C@H](CCCNC(=N)N)NC(=O)[C@@H](NC(=O)[C@@H](Cc1ccccc1)NC)[C@@H](C)CC)C(=O)N[C@H](C(=O)N[C@@H](CO)C(=O)N[C@H]1C(=O)N[C@@H](C)C(=O)N[C@@H](CC(C)C)C(=O)N[C@@H]([C@@H](C)CC)C(=O)O[C@H]1C)[C@@H](C)CC (H-[dNMeF]IR[dR][dI]IS[dT]ALI; ester 8-C)	0.25
CC[C@@H](C)[C@@H](NC(=O)[C@@H](CCCNC(=N)N)NC(=O)[C@H](CCCNC(=N)N)NC(=O)[C@@H](NC(=O)[C@@H](Cc1ccccc1)NC)[C@@H](C)CC)C(=O)N[C@H](C(=O)N[C@@H](CO)C(=O)N[C@H]1C(=O)N[C@@H](CCCNC(=N)N)C(=O)N[C@@H](CC(C)C)C(=O)N[C@@H]([C@@H](C)CC)C(=O)O[C@H]1C)[C@@H](C)CC (H-[dNMeF]IR[dR][dI]IS[dT]RLI; ester 8-C)	1

**Q:** Need MIC, item CC[C@@H](C)[C@@H](NC(=O)[C@@H](CCC(N)=O)NC(=O)[C@H](CCCNC(=N)N)NC(=O)[C@@H](NC(=O)[C@@H](Cc1ccccc1)NC)[C@@H](C)CC)C(=O)N[C@H](C(=O)N[C@@H](CO)C(=O)N[C@H]1C(=O)N[C@@H](CCCNC(=N)N)C(=O)N[C@@H](CC(C)C)C(=O)N[C@@H]([C@@H](C)CC)C(=O)O[C@H]1C)[C@@H](C)CC (H-[dNMeF]IR[dQ][dI]IS[dT]RLI; ester 8-C)
**A:** 1

###

molecules and their reported MIC
Tested on: Bacillus cereus
Method notes: Antibacterial activity against Bacillus cereus ATCC 11788 after 24 hrs
Assay type: functional
Condition details: ATCC 11788, 24 h
Positions of bridges follow the written chain, without caps; N, C: chain ends. Non-standard residues stand in square brackets, D forms with d. Residues, ends and D or L forms follow the SMILES beside them. dNMeF = CN[C@H](Cc1ccccc1)C(=O)O
API: value field is a number in µg/mL; no unit string.

**Q:** Suppose we examine the molecule CC[C@@H](C)[C@@H](NC(=O)[C@@H](CCC(N)=O)NC(=O)[C@H](CO)NC(=O)[C@@H](NC(=O)[C@@H](Cc1ccccc1)NC)[C@@H](C)CC)C(=O)N[C@H](C(=O)N[C@@H](CO)C(=O)N[C@H]1C(=O)N[C@@H](CCCNC(=N)N)C(=O)N[C@@H]([C@@H](C)CC)C(=O)N[C@@H]([C@@H](C)CC)C(=O)O[C@H]1C)[C@@H](C)CC ; what MIC value has been reported?
**A:** 0.5

**Q:** Which MIC is listed for CC[C@@H](C)[C@@H](NC(=O)[C@@H](CCC(N)=O)NC(=O)[C@H](CO)NC(=O)[C@@H](NC(=O)[C@@H](Cc1ccccc1)NC)[C@@H](C)CC)C(=O)N[C@H](C(=O)N[C@@H](CO)C(=O)N[C@H]1C(=O)N[C@@H](CCCNC(=N)N)C(=O)N[C@@H](CC(C)C)C(=O)N[C@@H]([C@@H](C)CC)C(=O)O[C@H]1C)[C@@H](C)CC (H-[dNMeF]IS[dQ][dI]IS[dT]RLI; ester 8-C) ?
**A:** 0.25

###

The compounds listed here are annotated with their MIC.
Test system: Staphylococcus saprophyticus
Method notes: Antibacterial activity against Staphylococcus saprophyticus ATCC 49453 after 24 hrs
Type: functional
Condition details: ATCC 49453, 24 h
Positions of bridges follow the written chain, without caps; N, C: chain ends. Non-standard residues stand in square brackets, D forms with d. Residues, ends and D or L forms follow the SMILES beside them. dNMeF = CN[C@H](Cc1ccccc1)C(=O)O

**Q:** Bench note: what MIC did CC[C@@H](C)[C@@H](NC(=O)[C@@H](CCCNC(=N)N)NC(=O)[C@H](CCCNC(=N)N)NC(=O)[C@@H](NC(=O)[C@@H](Cc1ccccc1)NC)[C@@H](C)CC)C(=O)N[C@H](C(=O)N[C@@H](CO)C(=O)N[C@H]1C(=O)N[C@@H](C)C(=O)N[C@@H](CC(C)C)C(=O)N[C@@H]([C@@H](C)CC)C(=O)O[C@H]1C)[C@@H](C)CC (H-[dNMeF]IR[dR][dI]IS[dT]ALI; ester 8-C) show?
**A:** < 0.0625 µg/mL

**Q:** Returns the measured MIC for the input compound. Input: CC[C@@H](C)[C@@H](NC(=O)[C@@H](CCCNC(=N)N)NC(=O)[C@H](CO)NC(=O)[C@@H](NC(=O)[C@@H](Cc1ccccc1)NC)[C@@H](C)CC)C(=O)N[C@H](C(=O)N[C@@H](CO)C(=O)N[C@H]1C(=O)N[C@@H](CCCNC(=N)N)C(=O)N[C@@H](CC(C)C)C(=O)N[C@@H]([C@@H](C)CC)C(=O)O[C@H]1C)[C@@H](C)CC (H-[dNMeF]IS[dR][dI]IS[dT]RLI; ester 8-C)
**A:** < 0.0625 µg/mL

**Q:** Given CC[C@@H](C)[C@@H](NC(=O)[C@@H](CCC(N)=O)NC(=O)[C@H](CCCNC(=N)N)NC(=O)[C@@H](NC(=O)[C@@H](Cc1ccccc1)NC)[C@@H](C)CC)C(=O)N[C@H](C(=O)N[C@@H](CO)C(=O)N[C@H]1C(=O)N[C@@H](C)C(=O)N[C@@H]([C@@H](C)CC)C(=O)N[C@@H]([C@@H](C)CC)C(=O)O[C@H]1C)[C@@H](C)CC , state its recorded MIC.
**A:** < 0.0625 µg/mL

###

System: Staphylococcus aureus
Method notes: Antibacterial activity against methicillin-resistant Staphylococcus aureus isolate 1003 after 24 hrs
Assay type: functional
Condition details: isolate 1003, 24 h
Positions of bridges follow the written chain, without caps; N, C: chain ends. Non-standard residues stand in square brackets, D forms with d. Residues, ends and D or L forms follow the SMILES beside them. dNMeF = CN[C@H](Cc1ccccc1)C(=O)O
Value kind: MIC (mg/L)
# unit: mg/L | format: bare number

Guide cases for MIC, answers given:
Molecule	Value kind	Unit abbreviation	Observed measurement
CC[C@@H](C)[C@@H](NC(=O)[C@@H](CCCNC(=N)N)NC(=O)[C@H](CO)NC(=O)[C@@H](NC(=O)[C@@H](Cc1ccccc1)NC)[C@@H](C)CC)C(=O)N[C@H](C(=O)N[C@@H](CO)C(=O)N[C@H]1C(=O)N[C@@H](C)C(=O)N[C@@H](CC(C)C)C(=O)N[C@@H]([C@@H](C)CC)C(=O)O[C@H]1C)[C@@H](C)CC	MIC	mg/L	0.5
CC[C@@H](C)[C@@H](NC(=O)[C@@H](CCCNC(=N)N)NC(=O)[C@H](CCCNC(=N)N)NC(=O)[C@@H](NC(=O)[C@@H](Cc1ccccc1)NC)[C@@H](C)CC)C(=O)N[C@H](C(=O)N[C@@H](CO)C(=O)N[C@H]1C(=O)N[C@@H](CCCNC(=N)N)C(=O)N[C@@H](CC(C)C)C(=O)N[C@@H]([C@@H](C)CC)C(=O)O[C@H]1C)[C@@H](C)CC (H-[dNMeF]IR[dR][dI]IS[dT]RLI; ester 8-C)	MIC	mg/L	2
CC[C@@H](C)[C@@H](NC(=O)[C@@H](CCC(N)=O)NC(=O)[C@H](CO)NC(=O)[C@@H](NC(=O)[C@@H](Cc1ccccc1)NC)[C@@H](C)CC)C(=O)N[C@H](C(=O)N[C@@H](CO)C(=O)N[C@H]1C(=O)N[C@@H](CCCNC(=N)N)C(=O)N[C@@H]([C@@H](C)CC)C(=O)N[C@@H]([C@@H](C)CC)C(=O)O[C@H]1C)[C@@H](C)CC	MIC	mg/L	0.5
CC[C@@H](C)[C@@H](NC(=O)[C@@H](CCC(N)=O)NC(=O)[C@H](CO)NC(=O)[C@@H](NC(=O)[C@@H](Cc1ccccc1)NC)[C@@H](C)CC)C(=O)N[C@H](C(=O)N[C@@H](CO)C(=O)N[C@H]1C(=O)N[C@@H](CCCNC(=N)N)C(=O)N[C@@H](CC(C)C)C(=O)N[C@@H]([C@@H](C)CC)C(=O)O[C@H]1C)[C@@H](C)CC (H-[dNMeF]IS[dQ][dI]IS[dT]RLI; ester 8-C)	MIC	mg/L	0.25
CC[C@@H](C)[C@@H](NC(=O)[C@@H](CCC(N)=O)NC(=O)[C@H](CCCNC(=N)N)NC(=O)[C@@H](NC(=O)[C@@H](Cc1ccccc1)NC)[C@@H](C)CC)C(=O)N[C@H](C(=O)N[C@@H](CO)C(=O)N[C@H]1C(=O)N[C@@H](CCCNC(=N)N)C(=O)N[C@@H](CC(C)C)C(=O)N[C@@H]([C@@H](C)CC)C(=O)O[C@H]1C)[C@@H](C)CC (H-[dNMeF]IR[dQ][dI]IS[dT]RLI; ester 8-C)	MIC	mg/L	2

Next molecule, MIC to be filled in.
**Q:** # query: MIC | item CC[C@@H](C)[C@@H](NC(=O)[C@@H](CCCNC(=N)N)NC(=O)[C@H](CO)NC(=O)[C@@H](NC(=O)[C@@H](Cc1ccccc1)NC)[C@@H](C)CC)C(=O)N[C@H](C(=O)N[C@@H](CO)C(=O)N[C@H]1C(=O)N[C@@H](CCCNC(=N)N)C(=O)N[C@@H](CC(C)C)C(=O)N[C@@H]([C@@H](C)CC)C(=O)O[C@H]1C)[C@@H](C)CC (H-[dNMeF]IS[dR][dI]IS[dT]RLI; ester 8-C) | system: Staphylococcus aureus
**A:** 0.5
